Record set of Ki for target or system Beta-1 adrenergic receptor (Homo sapiens).

| compound | target entity | measure unit | qualifying sign | Ki |
| --- | --- | --- | --- | --- |
| CNCC(O)COc1ccc(S(=O)(=O)NC(C)C(C)C)cc1 (stereo not given) | Beta-1 adrenergic receptor (Homo sapiens) | µM | = | 15.5 |
| CNCC(O)COc1ccc(S(=O)(=O)NCCc2ccccc2)cc1 (stereo not given) | Beta-1 adrenergic receptor (Homo sapiens) | µM | = | 26.9 |
| CC(C)NCC(O)COc1ccc(C(=O)NCCc2ccc(S(N)(=O)=O)cc2)cc1 (stereo not given) | Beta-1 adrenergic receptor (Homo sapiens) | µM | > | 100 |
| CNCC(O)COc1ccc(C(=O)NCCc2ccc(S(N)(=O)=O)cc2)cc1 (stereo not given) | Beta-1 adrenergic receptor (Homo sapiens) | µM | > | 100 |
| NS(=O)(=O)c1ccc(CCNC(=O)c2ccc(OCC(O)CNCc3ccccc3)cc2)cc1 (stereo not given) | Beta-1 adrenergic receptor (Homo sapiens) | µM | > | 100 |
| CNCC(O)COc1ccc(S(=O)(=O)NC(C)(C)C)cc1.Cl (stereo not given) | Beta-1 adrenergic receptor (Homo sapiens) | µM | = | 13.5 |
| Cl.NS(=O)(=O)c1ccc(CCNC(=O)c2ccc(OCC(O)CN3CCOCC3)cc2)cc1 (stereo not given) | Beta-1 adrenergic receptor (Homo sapiens) | µM | > | 100 |
| CCNCC(O)COc1ccc(C(=O)NCCc2ccc(S(N)(=O)=O)cc2)cc1 (stereo not given) | Beta-1 adrenergic receptor (Homo sapiens) | µM | > | 100 |
| CNCC(O)COc1ccc(S(=O)(=O)NCCOc2ccccc2)cc1 (stereo not given) | Beta-1 adrenergic receptor (Homo sapiens) | µM | = | 6.61 |
| NS(=O)(=O)c1ccc(CCNC(=O)c2ccc(OCC(O)CNCCO)cc2)cc1 (stereo not given) | Beta-1 adrenergic receptor (Homo sapiens) | µM | > | 100 |

Where these numbers come from: ChEMBL document CHEMBL4138309
